Molecular target: LBD of LXRβ (Homo sapiens (Human))
Sequence (P55055 222-460): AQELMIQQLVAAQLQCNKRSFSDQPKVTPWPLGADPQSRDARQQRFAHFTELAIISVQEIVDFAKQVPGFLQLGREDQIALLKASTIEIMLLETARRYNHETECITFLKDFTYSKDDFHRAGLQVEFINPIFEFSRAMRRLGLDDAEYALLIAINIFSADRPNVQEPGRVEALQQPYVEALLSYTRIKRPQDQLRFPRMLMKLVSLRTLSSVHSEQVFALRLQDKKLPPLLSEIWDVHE
Metric: pEC50
Expect pEC50 as a plain number equal to -log10 of the molar concentration.

Input line: Any idea what its pEC50 is? The compound is CC(C)C1c2cc3cc(CO)c(S(C)(=O)=O)cc3n2CCN1c1ncc(C(C)(C)O)c(C(F)(F)F)n1 (single isomer, unassigned) [Compound E27a]
Output line: 8.00

Input line: Any idea what its pEC50 is? The compound is CC(=O)c1cnc(N2CCn3c(cc4ccc(S(C)(=O)=O)cc43)[C@@H]2C(C)C)nc1C(F)(F)F [Compound E22b]
Output line: 4.94

Input line: Any idea what its pEC50 is? The compound is CC(=O)c1cnc(N2CCn3c(cc4ccc(S(C)(=O)=O)cc43)[C@H]2C(C)C)nc1C(F)(F)F [Compound E22a]
Output line: 6.97

Input line: Any idea what its pEC50 is? The compound is CC(O)c1cnc(N2CCn3c(cc4ccc(S(C)(=O)=O)cc43)C2C(C)C)nc1C(F)(F)F (single isomer, unassigned) [Compound E24a]
Output line: 6.87

Input line: Any idea what its pEC50 is? The compound is CC(C)[C@H]1c2cc3ccc(S(C)(=O)=O)cc3n2CCN1c1ncc(CO)c(C(F)(F)F)n1 [Compound E25b]
Output line: 4.97

Input line: Any idea what its pEC50 is? The compound is CC(C)[C@H]1c2cc3ccc(S(C)(=O)=O)cc3n2CCN1c1ncc(C(C)(C)O)c(C(F)(F)F)n1 [Compound E23b]
Output line: 5.87
